Assay: NCI Yeast Anticancer Drug Screen. Data for the cln2 rad14 strain (AID 165);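 note: 0% = growth equal to vehicle treated cultures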
Conditions: S. cerevisiae cln2 rad14 strain, at 50.0 µM, hits give high values
The panel holds about 79,000 compounds, 15% with a hit somewhere; the sample as a whole holds those more often.
readout: growth inhibition (%)
Report the figure in % without appending any unit label.

- CCC(C(N)=O)C(C)(C)C (centres undefined): 7.3
- Oc1cc2c(cc1C(c1ccc(F)cc1)N1CCCC1)OCO2 (centres undefined): -15.6
- COC(=O)C1=C(\N2CCOCC2)CCCC/C=C\1C(=O)OC: -10.3

Input: Entry under review: CCC1CN2CCc3cc(OC)c(OC)cc3C2CC1C#N (centres undefined) . Reported growth inhibition?
Output: 21.1

Input: Entry under review: `COc1cc2ccc(=O)oc2cc1O` . Reported growth inhibition?
Output: 19.4

Input: Entry under review: `O=C(CNC(=O)OCc1ccccc1)NCCNCCNC(=O)CNC(=O)OCc1ccccc1` . Reported growth inhibition?
Output: 36.2

Input: Entry under review: `O=c1oc(=O)c2ccccc2c2ccccc12` . Reported growth inhibition?
Output: -32.1

Input: Entry under review: `NCc1ccccc1F` . Reported growth inhibition?
Output: 13.7

Input: Entry under review: `CCCCCc1ccc(C)cc1OC(C)=O` . Reported growth inhibition?
Output: -14.1

Input: Entry under review: C=CCC1(CO)CCCCC1O (centres undefined) . Reported growth inhibition?
Output: -73.4

Input: Entry under review: CCC(=O)C(CC)Cc1ccc(OC)c(OC)c1 (centres undefined) . Reported growth inhibition?
Output: -5.55

Input: Entry under review: COc1ccc(C2OCC(c3ccccc3)O2)cc1 (centres undefined) . Reported growth inhibition?
Output: -37

Input: Entry under review: `N=c1ncn(C/C=C/c2ccccc2)c2nc[nH]c12` . Reported growth inhibition?
Output: -11.4

Input: Entry under review: `COCn1c(C)c(C)c2c(=O)oc(=O)[nH]c21` . Reported growth inhibition?
Output: -11.3

* * *

# growth inhibition listing for each entry below
Experiment: NCI Yeast Anticancer Drug Screen. Data for the sgs1 mgt1 strain (AID 161);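 note: 0% = growth of cultures given vehicle only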
Settings: S. cerevisiae sgs1 mgt1 strain, at 50.0 µM, hits give high values
About 79,000 compounds went through this panel and 15% of them were active in at least one assay; those are over-represented in the sample as a whole.
Report the figure in % without appending any unit label.

# count of solved cases: 10
• CN(C)CC1CN(C)CC(CN(C)C)C1(O)C(C(=O)N(C)C)c1ccccc1 (stereo unspecified) = 65.2
• COc1ccc(/C=N\S(=O)(=O)c2ccc(OC)cc2)cc1 = 15.1
• CC(C)CC(C)OC(=O)CC(CC(=O)OC(C)CC(C)C)C(=O)OC(C)CC(C)C (stereo unspecified) = -13.1
• CN(C)c1ncnc2ncn(C3OC(CO)C(O)C3O)c12 (stereo unspecified) = 60.2
• N=C1C=Cc2ccccc2/C1=N/N=c1/ccccn1O = 73.5
• O=C(COc1ccccc1)OC1CCCCC1C1CCCCC1 (stereo unspecified) = 4.05
• Cc1ccc(S(=O)(=O)OC/C(=C(/c2ccccc2)c2ccc(Cl)cc2)c2ccccc2)cc1 = 95.8
• Cn1cnc([N+](=O)[O-])c1SC1=NCCS1 = 10.2
• CCOC(=O)c1ccccc1Nc1c(C(=O)OCC)cnc2cc3c(cc12)OCO3 = -9.85
• FC(F)Cc1ccccc1 = 11.1

Shift focus to the following entry.
Input: Entry under review: `CCCCCCCCCCCCOc1cccc(OCCCCCCCCCCCC)c1` . Reported growth inhibition?
Output: 21.8

* * *

Experiment: NCI Yeast Anticancer Drug Screen. Data for the cln2 rad14 strain (AID 165);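 note: 0% = growth equal to vehicle treated cultures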
Conditions: S. cerevisiae cln2 rad14 strain, at 50.0 µM, hits give high values
The panel holds about 79,000 compounds, 15% with a hit somewhere; the sample as a whole holds those more often.
readout: growth inhibition (%)
Report the figure in % without appending any unit label.

# count of solved cases: 2
* C[C@H]1CCCCC[C@@H]2CC(=O)CC2C(=O)CCC(=O)O1 (stereo not given in full) | 8.05
* CCCCCCCCCCCCCCCC1=NN(c2ccccc2)C(=O)C1N=Nc1ccccc1 (stereo not given) | -10.2

Input: Entry under review: `CN(C(=O)CCC1OCCO1)c1cc([N+](=O)[O-])ccc1OCc1ccccc1` . Reported growth inhibition?
Output: 9.8

Input: Entry under review: O=C(Nc1ccccc1[N+](=O)[O-])C(=O)C(C(=O)c1ccccc1-c1ccccc1)C1OC(=O)c2ccccc21 (stereo not given) . Reported growth inhibition?
Output: -51.4

Input: Entry under review: `COc1ccc(Nc2nc3c([nH]2)c(=O)n(C)c(=O)n3C)cc1` . Reported growth inhibition?
Output: 6.9

Input: Entry under review: `Nc1nnc2nc(CC(=O)c3ccccc3)c(CC(=O)c3ccccc3)nn12` . Reported growth inhibition?
Output: 32.6

Input: Entry under review: `COC(=O)C1(Cc2ccc3c(c2)CCC3)Cc2cc3c(cc2C1)CCC3` . Reported growth inhibition?
Output: 15.8

Input: Entry under review: `O=C1CSC(/C(=C\c2ccc(Cl)cc2)c2nc3ccccc3[nH]2)=N1` . Reported growth inhibition?
Output: 11.7

Input: Entry under review: `Ic1ccc([I+]c2ccc(I)cc2)cc1` . Reported growth inhibition?
Output: 93.5

Input: Entry under review: `CCc1c(-c2ccccc2)[nH]c(=S)c(C#N)c1C` . Reported growth inhibition?
Output: 2.7

Input: Entry under review: CN1C(=O)C23CCCN2C(=O)C1(C)SC(=N)S3 (stereo not given) . Reported growth inhibition?
Output: -45.4

Input: Entry under review: `CC1(C)OC(=O)c2c(cc(N3CCOCC3)oc2=O)O1` . Reported growth inhibition?
Output: 9.55

Input: Entry under review: `O=c1c2cc([N+](=O)[O-])ccc2sc2ccsc12` . Reported growth inhibition?
Output: -2.85

* * *

Experiment: NCI Yeast Anticancer Drug Screen. Data for the bub3 strain (AID 167)
Details: S. cerevisiae bub3 mutant strain, at 50.0 µM, hits give high values
Compounds without any hit were thinned out: in the full panel of roughly 79,000, 15% have a hit. Active and inactive are the calls of the source. Rule as the data show it: active = growth inhibition above about 70%; inactive = the rest.
readout: growth inhibition

# count of solved cases: 3
* CC(=O)Nc1nc(C)c(CCCOc2ccc([N+](=O)[O-])cc2)c(Cl)n1 | 27.1% (inactive)
* CN(CCC(=O)O)S(=O)(=O)c1ccccc1 | -46.4% (inactive)
* COc1ccc(-c2cc(-c3ccccc3)nc(/N=C\c3ccccc3)n2)c(O)c1 | -34.7% (inactive)

Input: Entry under review: `CCO/C(Cc1ccc(Cl)cc1)=N/NC(N)=S` . Reported growth inhibition?
Output: 21.2% (inactive)

Input: Entry under review: CC(C)/C=C1\CCC(CN2CCCC2)C1=O (stereo unspecified) . Reported growth inhibition?
Output: 40.7% (inactive)

Input: Entry under review: `O=C(NNC(=O)c1ccccc1Br)c1ccccc1Br` . Reported growth inhibition?
Output: -25.1% (inactive)

Input: Entry under review: `N#CCCN(CCC#N)c1ccc(/C=C2\N=C(c3cc([N+](=O)[O-])ccc3Cl)N(S(=O)(=O)c3ccccc3)C2=O)cc1` . Reported growth inhibition?
Output: -1.35% (inactive)

Input: Entry under review: `O=C(Nc1ccccc1)OCc1cnc2ccccc2c1` . Reported growth inhibition?
Output: 3.05% (inactive)

* * *

Assay: NCI Yeast Anticancer Drug Screen. Data for the rad50 strain (AID 155);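 note: 0% = growth of vehicle-only cultures of the same strain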
Conditions: S. cerevisiae rad50 strain growth inhibition; at 50.0 µM; hits give high values
Description: Growth inhibition of yeast strains with defined genetic alterations is measured as a screen for potential anti-cancer activity. Selected strains with alterations in DNA damage repair or cell cycle control were exposed to compounds and growth inhibition was measured relative to vehicle treated controls. The strain used in this assay is rad50
About 79,000 compounds went through this panel and 15% of them were active in at least one assay; those are over-represented in the sample as a whole.
# growth inhibition listing for each entry below
Report the figure in % without appending any unit label.

# count of solved cases: 10
* Cc1sc2nc3n(c(=O)c2c1C)N=C(c1ccc(Cl)cc1)CS3 | 6.6
* CC1=C(C(=O)CC(=O)C(=O)Nc2ccc(C)cc2C)Sc2ccccc2N1 | -1.55
* CSC(=S)S(=O)(=O)C12CC3CC(CC(C3)C1)C2 | 90.5
* NC(=O)Nc1ccc([N+](=O)[O-])cc1 | 4.65
* CNc1ccc(CC(=O)O)cc1 | -2.75
* CC(C1CCCC1=O)C1CCCC1=O (configuration not stated) | -1.1
* CCN=C(C#N)NCC | 19.2
* CCCCOC(=O)CCCCCCC/C=C/C1C=CC(CCCC)C(C#N)C1C#N (configuration not stated) | 1
* CC(=O)c1ccccc1C(=O)O | 6.05
* O=C(NC1CCCCC1)/C(=C\c1ccc(/C=C(/NC(=O)c2ccccc2)C(=O)NC2CCCCC2)cc1)NC(=O)c1ccccc1 | -9.95

Input: Entry under review: `CCCNc1nc2c(c(=O)n(C)c(=O)n2C)n1C` . Reported growth inhibition?
Output: -11.2

Input: Entry under review: `Nc1ccc2nc(-c3ccccc3)[nH]c2c1` . Reported growth inhibition?
Output: -13.8
